# Test system: A549
# EXPERIMENTAL PROTOCOL: Growth inhibition of human A549 cells at 30 uM after 48 hrs by sulpharhodamine B assay
# Type: functional
# EXPERIMENTAL PARAMETERS: A549, 48 h, read-out: GI
ASSAY ENDPOINT: inhibition of growth at 30 µM (%)
Give bare numbers, in %.

Examples from the recorded data:
// fetch inhibition of growth at 30 µM given entry CC(C)=CCC[C@@](C)(/C=C/c1ccc(N)cc1)/C=C/c1ccc(O)cc1 33

Complete the entry with inhibition of growth at 30 µM for C=C[C@@](C)(/C=C/c1ccc(OC(C)=O)cc1)CCC=C(C)C 60

Retrieve inhibition of growth at 30 µM measured for CC1C(C(C)(C)O)CCC1(C)/C=C/c1ccc(O)cc1 (configuration not stated) and print it. 61

Recall and state the measured inhibition of growth at 30 µM for COc1ccc(/C=C/[C@](C)(/C=C/c2ccc(O)cc2)CCC=C(C)C)cc1 . 55

Note inhibition of growth at 30 µM for the compound shown: C=C[C@@](C)(/C=C/c1ccc(OC(=O)CCCCCCCCC)cc1)CCC=C(C)C 33

Provide reported inhibition of growth at 30 µM for each item, in the same order as listed.
1. C=C[C@@](C)(/C=C/c1ccc(OC)cc1)CCC=C(C)C
2. C=C[C@@](C)(/C=C/c1ccc(O)cc1)CCC=C(C)C

[34, 30]

---

# Tested on: T47D
# EXPERIMENTAL PROTOCOL: Cytotoxicity against human T47D cells
# Assay type: functional, cell-based
ASSAY ENDPOINT: IC50 (µM)
Answers are plain numbers, in µM.

Fill in reported IC50 for this entry: C=C[C@@](C)(/C=C/c1ccc(O)cc1)CCC=C(C)C [BAKUCHIOL] 28.9

---

What inhibition of growth at 20 µM was measured for each of the following?
# System: HCT-15
# EXPERIMENTAL PROTOCOL: Growth inhibition of human HCT15 cells at 20 uM after 48 hrs by sulpharhodamine B assay
# Assay type: functional
# EXPERIMENTAL PARAMETERS: HCT-15, 48 h, read-out: GI
Numbers only, in %.

Please review the entries below; each comes with its answer.
Please give measured inhibition of growth at 20 µM of the following entry: COc1ccc(/C=C/[C@](C)(/C=C/c2ccc(O)cc2)CCC=C(C)C)cc1 61

Name the recorded inhibition of growth at 20 µM of the item O=c1[nH]cc(F)c(=O)[nH]1 [FLUOROURACIL] in your answer. 63

Output inhibition of growth at 20 µM of CC1C(C(C)(C)O)CCC1(C)/C=C/c1ccc(O)cc1 (centres undefined) 63

Further cases:
Tell me inhibition of growth at 20 µM reported for C=C[C@@](C)(/C=C/c1ccc(OC(C)=O)cc1)CCC=C(C)C [ACETYLBAKUCHIOL] 57

---

# Test system: PC-3
# EXPERIMENTAL PROTOCOL: Cytotoxicity against human PC3 cells after 48 hrs by sulpharhodamine B assay
# Format: functional, cell-based
# EXPERIMENTAL PARAMETERS: PC-3, 48 h
So I've got a bunch of compounds here, and I need their IC50 values.
One number for each entry, in µM.

Here's what some known entries look like.
Consider the compound CC1C(C(C)(C)O)CCC1(C)/C=C/c1ccc(O)cc1 (stereo not drawn) . State its measured IC50. 19

Supply measured IC50 of C=C[C@@](C)(/C=C/c1ccc(OC(C)=O)cc1)CCC=C(C)C in your reply. 23

Switching to the query record.
Write down IC50 measured for item COc1ccc(/C=C/[C@](C)(/C=C/c2ccc(O)cc2)CCC=C(C)C)cc1 15

---

# System: MCF7
# EXPERIMENTAL PROTOCOL: Growth inhibition of human MCF7 cells at 50 uM after 48 hrs by sulpharhodamine B assay
# Format: functional
# EXPERIMENTAL PARAMETERS: MCF7, 48 h, read-out: GI
Lab note: anything with inhibition of growth at 50 µM at or over 40% counts as satisfied; the rest go in not satisfied.

The examples below pair each entry with its known result.
Form field: inhibition of growth at 50 µM at least 40%? Entry: CC1C(C(C)(C)O)CCC1(C)/C=C/c1ccc(O)cc1 (stereo not drawn) satisfied

Decide: inhibition of growth at 50 µM of COc1ccc(/C=C/C(C)(/C=C/c2ccc(OC)cc2)CCC=C(C)C)cc1 >= 40%? not satisfied

Given the entry COc1ccccc1/C=C/[C@@](C)(/C=C/c1ccc(O)cc1)CCC=C(C)C , answer whether its inhibition of growth at 50 µM meets or surpasses 40%. satisfied

Hi team, for CCCOc1ccc(/C=C/[C@@](C)(/C=C/c2ccc(O)cc2)CCC=C(C)C)cc1Cl , is the recorded inhibition of growth at 50 µM at or above 40%? satisfied

Say whether CC(C)=CCC[C@](C)(/C=C/c1ccc(O)cc1)/C=C/c1ccc(F)cc1 shows inhibition of growth at 50 µM of 40% or more. not satisfied

Dear colleague, could you confirm whether CC(C)=CCC[C@@](C)(/C=C/c1ccc(N)cc1)/C=C/c1ccc(O)cc1 has inhibition of growth at 50 µM at or above 40%? satisfied

Exam item: decide whether the reported inhibition of growth at 50 µM for C=C[C@@](C)(/C=C/c1ccc(OC(C)=O)cc1)CCC=C(C)C [ACETYLBAKUCHIOL] is at least 40%. satisfied

Reported inhibition of growth at 50 µM at or above 40%? CC[C@](C)(CCCC(C)C)CCc1ccc(O)cc1 satisfied

For this compound, is measured inhibition of growth at 50 µM 40% or higher? CC(C)=CCCC(C)(/C=C/c1ccc(O)cc1)/C=C/c1ccc(O)cc1 not satisfied

Quick check: does C=C[C@@](C)(/C=C/c1ccc(OC)cc1)CCC=C(C)C have inhibition of growth at 50 µM greater than or equal to 40%? not satisfied

New cases:
Hi team, for C=C[C@@](C)(/C=C/c1ccc(OC(=O)CCCCC)cc1)CCC=C(C)C , is the recorded inhibition of growth at 50 µM at or above 40%? not satisfied

Item COc1ccc(/C=C/[C@](C)(/C=C/c2ccc(O)cc2)CCC=C(C)C)cc1 with inhibition of growth at 50 µM of 40% or above? satisfied

Values were extracted from ChEMBL document CHEMBL1944511.
